- ASSAY TEXT: Absorption kinetic after oral administration: plasma concentration of BTG 1640
- Assay type: in vivo, rats Sprague Dawley
- MEASUREMENT PARAMETERS: Sprague Dawley, rat, in vivo, po, 10 mg/kg
Structures can show the parent of a compound that is named as a salt.
OBSERVABLE: concentration at 30 minutes (ng/mL)

>>> endpoint_value("CN1OC2CCCC(=O)C2C1Cc1ccccc1 (stereo not shown) [BTG 1640 oxalate]")
390

---

In this section, each of the compounds is paired with its reported % impurities.
- ASSAY TEXT: Stability test of BTG 1640 salts under storage conditions: total impurities
- Format: physicochemical
- MEASUREMENT PARAMETERS: T = 25° C., humidity 60% RH; time 0 (months)
Where a name gives a salt, the structure may show the parent alone.
OBSERVABLE: % impurities (%)

>>> endpoint_value("CN1OC2CCCC(=O)C2C1Cc1ccccc1.O=C(O)CCC(=O)O (centres unmarked) [BTG 1640 succinate]")
0.77
>>> endpoint_value("CN1OC2CCCC(=O)C2C1Cc1ccccc1.O=C(O)/C=C\\C(=O)O (centres unmarked) [BTG 1640 maleate]")
0.23
>>> endpoint_value("CN1OC2CCCC(=O)C2C1Cc1ccccc1 (centres unmarked) [BTG 1640 oxalate]")
0.27
>>> endpoint_value("CN1OC2CCCC(=O)C2C1Cc1ccccc1.Cl (centres unmarked) [BTG 1640 hydrochloride, reference compound]")
0.36
>>> endpoint_value("CN1OC2CCCC(=O)C2C1Cc1ccccc1.CS(=O)(=O)O (centres unmarked) [BTG 1640 methanesulphonate]")
0.42

---

- ASSAY TEXT: Absorption kinetic after oral administration: plasma concentration of BTG 1640
- Assay type: in vivo, rats Sprague Dawley
- MEASUREMENT PARAMETERS: Sprague Dawley, rat, in vivo, po, 10 mg/kg
Counter-ions that a name gives are not always drawn.
OBSERVABLE: concentration at 300 minutes

>>> endpoint_value("CN1OC2CCCC(=O)C2C1Cc1ccccc1 (stereo not shown) [BTG 1640 oxalate]")
"0 ng/mL"
